tested on: SHP2-C SH2;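 also: peptide library displayed on the E. coli surface as eCPX fusions, selected cells deep-sequenced, score is each peptide's frequency after selection divided by its frequency in the input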
assay name: SH2 binding enrichment of the phosphorylated peptide, bacterial display (enrichment ratio); higher = better substrate or ligand; peptides without Tyr show the background
quantity: SH2 binding enrichment
Please respond with just the number, no unit label.

sequence string	quantity	measured result
SVVAPYEPPEV [TP53_Y220_V218A]	SH2 binding enrichment	0.59
IKAGAYDFPSP [CAMK2A_Y230]	SH2 binding enrichment	0.687
REGAKYVSHGT [ASS1_Y113_A118T]	SH2 binding enrichment	0.706
STTSDYQWDVS [MTDH_Y364]	SH2 binding enrichment	0.612
KEEEDYKEENN [BMS1_Y651]	SH2 binding enrichment	0.716

Item under review: VKANTYEKFWP [GATM_Y100_YF] . Reported SH2 binding enrichment? 0.569

Item under review: ESMLRYDVYGG [STOX1_Y607_E608D] . Reported SH2 binding enrichment? 0.62

Item under review: GIFKDYFRFNF [PLA2G2D_Y85_S80G_YF] . Reported SH2 binding enrichment? 1.74

Item under review: NWGSPYKSDGC [ZNF347_Y261_N264D] . Reported SH2 binding enrichment? 0.587

Item under review: INSLKYAFNVS [EIF2B5_Y583_I587V_YF] . Reported SH2 binding enrichment? 0.352

Item under review: NTPNAYLRVNV [ADD2_Y440_T439A] . Reported SH2 binding enrichment? 1.12

Item under review: LNPFIYSLRNW [OR1A2_Y288] . Reported SH2 binding enrichment? 1.78

Item under review: FYRNVYHLASV [RBL1_Y796_K794N] . Reported SH2 binding enrichment? 0.699

Item under review: CLRIDYERVSQ [DSP_Y1542_R1537C] . Reported SH2 binding enrichment? 0.599

Item under review: DWRQEYVLNEP [TGM1_Y267_S272P] . Reported SH2 binding enrichment? 0.75

Item under review: GKVADYIPQLP [GLS_Y249_A254P] . Reported SH2 binding enrichment? 0.634

Item under review: LRVHSYKSMQH [DRC7_Y516_P521H] . Reported SH2 binding enrichment? 1.18

Item under review: DRSSLYLVAGP [KIAA1614_Y1083_N1078D] . Reported SH2 binding enrichment? 0.685

Item under review: WKKEIYEESST [MOCS2_Y170] . Reported SH2 binding enrichment? 0.535

Item under review: YGGLRCGYGVL [KRTAP20-2_Y13_Y13C] . Reported SH2 binding enrichment? 0.642

Item under review: AFEQQYSPIPR [NOX1_Y373] . Reported SH2 binding enrichment? 0.724

Item under review: SGAWSYNTSTE [SELE_Y24] . Reported SH2 binding enrichment? 0.886

Item under review: SVTCTYSPAIN [TP53_Y126_L130I] . Reported SH2 binding enrichment? 0.5

Item under review: LFVDVYGPSVP [NUBPL_Y109_D105Y_YF] . Reported SH2 binding enrichment? 0.684

Item under review: GIKAAYEAELG [LMNA_Y81] . Reported SH2 binding enrichment? 0.727

Item under review: IQKKFYRAILE [CHD7_Y1218_YF] . Reported SH2 binding enrichment? 0.699

Item under review: SVTCTFSPALN [TP53_Y126_Y126F] . Reported SH2 binding enrichment? 0.494

Item under review: PQIVNYSPDCI [LDHB_Y128_K127N] . Reported SH2 binding enrichment? 0.492

Item under review: RRIFSYRGHLW [VHL_Y112_H110Y_YF] . Reported SH2 binding enrichment? 0.495

This collection of values is drawn from the supplement of paper PMC10065799.
